- System Name: Cytochrome P450 1A2 (Homo sapiens, UniProt P05177)
- Sequence (P05177 whole entry): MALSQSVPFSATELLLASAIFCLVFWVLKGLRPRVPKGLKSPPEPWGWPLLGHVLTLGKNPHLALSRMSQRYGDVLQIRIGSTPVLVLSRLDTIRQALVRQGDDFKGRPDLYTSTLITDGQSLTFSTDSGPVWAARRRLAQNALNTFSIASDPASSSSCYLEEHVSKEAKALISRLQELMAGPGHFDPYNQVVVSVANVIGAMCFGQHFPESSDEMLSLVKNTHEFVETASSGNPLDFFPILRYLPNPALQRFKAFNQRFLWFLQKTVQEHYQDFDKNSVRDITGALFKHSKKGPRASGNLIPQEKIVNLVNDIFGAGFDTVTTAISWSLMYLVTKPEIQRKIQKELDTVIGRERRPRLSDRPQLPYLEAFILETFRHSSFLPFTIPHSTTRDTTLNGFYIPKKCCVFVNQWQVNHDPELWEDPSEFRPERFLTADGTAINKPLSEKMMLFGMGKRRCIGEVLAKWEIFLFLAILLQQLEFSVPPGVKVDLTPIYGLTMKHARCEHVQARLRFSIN
- Procedure Details: Inhibition of human CYP1A2 in presence of NADPH by luciferase reporter gene assay
Recorded Metric: IC50 (nM)

Clc1ccc(-c2cc(C(c3ccc(Cl)cc3)n3ccnc3)c[nH]2)cc1 (centres undefined)    400

I = Cn1cc(C(c2ccc(Cl)cc2)n2ccnc2)cc1-c1ccc(Cl)cc1 (centres undefined)
II = Clc1ccc(-c2c[nH]cc2C(c2ccc(Cl)cc2Cl)n2ccnc2)cc1 (racemic)
Request: Of I and II , whose reported IC50 is numerically smaller? In your reply, give the label of the chosen option.
Result: I
(I: 2000 nM, II: 7000 nM)

###

- System: Trypanosoma cruzi
- Procedure Details: Antiprotozoal activity against Trypanosoma cruzi Tulahuen C2C4 amastigotes infected in rat L6 cells after 96 hrs by inverted microscopic analysis
- Format: functional, organism-based
- Test Parameters: Tulahuen C2C4, L6, 96 h
Recorded Metric: IC50 (µM)

These solved cases illustrate the format of a correct answer.
Clc1ccc(C(c2c[nH]cc2-c2ccc(Cl)c3ccccc23)n2ccnc2)c(Cl)c1 (stereo not given)    0.048
CC(C)c1ccc(-c2c[nH]cc2C(c2ccc(Cl)cc2Cl)n2ccnc2)cc1 (stereo not given)    0.066
Clc1ccc(-c2c[nH]cc2[C@@H](c2ccc(Cl)cc2Cl)n2ccnc2)cc1    0.017
Clc1ccc(C(c2c[nH]cc2-c2ccc3ccccc3c2)n2ccnc2)c(Cl)c1 (stereo not given)    0.018
CCc1ccc(-c2c[nH]cc2C(c2ccc(Cl)cc2Cl)n2ccnc2)cc1 (stereo not given)    0.066
Clc1ccc(-c2c[nH]cc2C(c2ccc(Cl)cc2Cl)n2ccnc2)cc1 (racemic)    0.035

I = Clc1ccc(C(c2c[nH]cc2-c2ccc(Cl)cc2-c2cccs2)n2ccnc2)c(Cl)c1 (stereo not given)
II = Clc1ccc(C(c2c[nH]cc2-c2ccc(Cl)cc2-c2ccccc2)n2ccnc2)c(Cl)c1 (stereo not given)
III = Clc1ccc(C(c2c[nH]cc2-c2ccc(Cl)cc2-c2ccccc2)n2ccnc2)cc1 (stereo not given)
Request: Please put the entries in order of rising IC50. Answer format: list of labels, ordered as asked.
Result: I, II, III
(I: 0.027 µM, II: 0.142 µM, III: 0.203 µM)
